# Test system: Yersinia pseudotuberculosis YPIII
# assay.method.text: Inhibition of T3S in Yersinia pseudotuberculosis YPIII expressing yopE-luxAB at 200 uM after 3 hrs by luciferase reporter gene assay
If the reported inhibition equals or exceeds 60%, assign label 1. If not, assign label 0.

Use these answered entries as a reference point.
smiles.str	answer.label
CC(C)(C)c1ccc(O)c(/C=N/NC(=O)Cc2ccccc2)c1	label 0
COc1cc(Br)cc(/C=N/NC(=O)CCc2ccc(O)cc2)c1O	label 0
COc1cccc(/C=N/NC(=O)c2cc(OC)c(OC)c(OC)c2)c1O	label 1
O=C(CC12CC3CC(CC(C3)C1)C2)N/N=C/c1ccc(Cl)cc1O	label 0
CC(C)(C)c1ccc(O)c(/C=N/NC(=O)c2ccc(Br)cc2)c1	label 0
COc1ccc(Br)c(C(=O)N/N=C/c2cc(C(C)(C)C)ccc2O)c1	label 0
O=C(CCc1ccc(F)cc1)N/N=C/c1cc(F)cc(Cl)c1O	label 1
COc1cccc(C(=O)N/N=C/c2cc(OC)cc(OC)c2O)c1	label 1
COc1cccc(/C=N/NC(=O)c2ccccc2[N+](=O)[O-])c1O	label 1
O=C(N/N=C/c1cc(F)cc(Cl)c1O)c1cc(Cl)cc(Cl)c1	label 0

Problem: Does `O=C(N/N=C/c1cc(Cl)cc(Cl)c1O)c1ccccc1[N+](=O)[O-]` have a reported inhibition of at least 60%?
Solution: label 1

Problem: Does `COc1ccc(Br)c(C(=O)N/N=C/c2cc([N+](=O)[O-])cc([N+](=O)[O-])c2O)c1` have a reported inhibition of at least 60%?
Solution: label 0

----------
# System: Yersinia pseudotuberculosis YPIII
# assay.method.text: Inhibition of T3S in Yersinia pseudotuberculosis YPIII expressing yopE-luxAB at 6.25 uM after 3 hrs by luciferase reporter gene assay
If the reported inhibition equals or exceeds 8%, assign Fulfilled. If not, assign Not fulfilled.

smiles.str	answer.label
CC(C)(C)c1ccc(O)c(/C=N/NC(=O)CC23CC4CC(CC(C4)C2)C3)c1	Fulfilled
O=C(N/N=C/c1c(O)cc(O)cc1O)c1sc2ccccc2c1Cl	Fulfilled
CC(C)(C)c1cc(/C=N/NC(=O)c2cccc(C(F)(F)F)c2)c(O)c(C(C)(C)C)c1	Not fulfilled
O=C(N/N=C/c1cc(Br)ccc1O)c1ccncc1	Fulfilled
COc1ccc(Br)c(/C=N/NC(=O)c2snnc2C)c1O	Fulfilled
COc1cc([N+](=O)[O-])cc(/C=N/NC(=O)c2ccncc2)c1O	Fulfilled
O=C(Cc1ccccc1)N/N=C/c1cc(Br)ccc1O	Fulfilled
N#CCC(=O)N/N=C/c1cc(Br)ccc1O	Not fulfilled
O=C(N/N=C/c1cccc(F)c1O)c1ccc([N+](=O)[O-])cc1	Not fulfilled

Now look at this one.
Problem: Does `COc1cccc(C(=O)N/N=C/c2cc(C(C)(C)C)cc(C(C)(C)C)c2O)c1` have a reported inhibition of at least 8%?
Solution: Not fulfilled

----------
# assay.method.text: Cytotoxicity against human HeLa 229 cells assessed as cell viability at 25 uM after 28 hrs using resazurin staining by fluorescence microscopy
# Format: cell-based
# particulars: read-out: Activity
Catalogue of viability at 28 h, 25 µM values
Give the quantity in %, number only.

In the examples that follow, each entry is paired with its recorded viability at 28 h, 25 µM.
smiles.str	recorded.value
Cc1ccc(C(=O)N/N=C/c2cc(C(C)(C)C)ccc2O)cc1	80
CC(C)(C)c1ccc(O)c(/C=N/NC(=O)Cc2ccccc2)c1	83
O=C(N/N=C/c1cccc(F)c1O)c1ccc([N+](=O)[O-])cc1	75
O=C(N/N=C/c1ccc(Cl)cc1O)c1ccncc1	72
O=C(Cc1ccccc1)N/N=C/c1cc(Br)ccc1O	75

Please fill in: viability at 28 h, 25 µM reported for `COc1cc(Br)cc(/C=N/NC(=O)Cc2ccccc2)c1O` = 58

Please fill in: viability at 28 h, 25 µM reported for `O=C(N/N=C/c1cc(Br)ccc1O)c1ccccc1Cl` = 77

Please fill in: viability at 28 h, 25 µM reported for `COc1cccc(C(=O)N/N=C/c2cc(Br)ccc2O)c1` = 73
